Assay summary: Drug uptake in BALB/c mouse brain at 10 mg/kg, sc measured at 5 hrs by LC-MS/MS analysis
Type: ADME, organism-based
Reported conditions: read-out: Drug uptake

Compound	concentration at 5 h [ng/g]
CC1CN(C(=O)CO/N=C/c2ccc(OC(F)F)c(OC3CCCC3)c2)CC(C)O1 (stereo unspecified)	2.94
